Data provenance is PubChem BioAssay.

- runDescription: binders of probe aFGF2 on microarray, primary screen, stem cell growth factor project, biochemical, small-molecule microarray, fluorescence 635/667 (AID 1067);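 also: measures binding of biotinylated aFGF2 protein to printed compounds on slides; z-score merges feature fluorescence and signal-to-noise across triplicate slides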
- setupConditions: higher = more signal
Give measured composite z-score for each item. Keep answers brief.

Recorded results for 3 compounds are shown here.
compound: C=CCN1C(=O)[C@@]2(Cc3ccccc3)N=C(c3ccc(OCCCO)cc3)O[C@H]2c2ccccc21
observationType: composite z-score
assayValue: 0.0714

compound: C=CC(=O)O[C@@H](Cc1ccccc1)[C@H]1C2C=CCCC=C2CN1Cc1cccc(Cl)c1 (some centres undefined)
observationType: composite z-score
assayValue: -0.123

compound: O=C(NCc1ccccc1)[C@@]1(Cc2ccccc2)COC(c2ccc(OCCCO)cc2)=N1
observationType: composite z-score
assayValue: -0.255

Data request: What does the record list as composite z-score for C=CCN1C(=O)[C@@]2(O[C@@H](CCn3cc([C@H](O)c4ccccc4)nn3)[C@H]([Si](C)(C)c3ccc(OC)cc3)[C@H]2C)c2cc(N3CCOC3=O)ccc21 ?
Data returned: -0.104
